Test system: TK-10 renal
test.summary: NCI-60 one-dose screen, 48 h
applied.conditions: 10 µM unless noted
Compounds without any hit were thinned out: in the full panel of roughly 83,000, 20% have a hit. Activity calls are given as the source filed them. The calls were made as follows: active = growth percent below 10; inactive = the rest.
Can you answer with just one of these options? TRUE (active), FALSE (inactive)

# example entries with known answers
| compound | measured.on | category.label |
| --- | --- | --- |
| CN(C)c1nc(NCCNS(=O)(=O)c2ccc(C(=O)/C=C/c3ccc(C(F)(F)F)cc3)cc2)nc(N2CCOCC2)n1 | TK-10 renal | FALSE |
| N/C(=N\c1nc2ccc([N+](=O)[O-])cc2s1)NC(=O)Nc1ccccc1Cl | TK-10 renal | FALSE |
| CCCSc1nnc(-c2sc3nc4ccccc4n3c2C)o1 | TK-10 renal | FALSE |
| O=C(c1ccc(O)cc1)C1[C@H](c2ccc(Cl)cc2)[C@@H](c2ccccc2)NC12C(=O)Nc1ccc(Br)cc12 (stereo partly specified) | TK-10 renal | TRUE |

For this compound, state the assay outcome: `COc1cc(NC(=O)CSc2nnc(-c3ccc(-c4nc5ccc(Cl)cc5[nH]4)cc3)o2)cc(OC)c1OC`
FALSE

Repeat for the following compound: `O=C(Cc1c(-c2cccc([N+](=O)[O-])c2)n(-c2ncnc3c2c(-c2ccccc2)c(-c2ccccc2)n3Cc2ccccc2)[nH]c1=O)c1ccc(Cl)c(Cl)c1`
FALSE

Repeat for the following compound: COc1ccc(C2=NN(C(=O)[C@H]3[C@@H](c4ccco4)c4sc(=O)[nH]c4S[C@@H]3C)C(c3ccc4ccccc4c3)C2)cc1 (stereo partly specified)
FALSE

Repeat for the following compound: `COC(=O)c1c(C(=O)OC)c2c3ccccc3c3ccccc3n2c1C(=O)C(F)(F)F`
FALSE

Repeat for the following compound: `CCCCCCCCc1ccc(C(=O)Nc2ccc(C)cc2C(=O)O)cc1`
FALSE

---

System: HCC-2998 colon
test.summary: NCI-60 one-dose screen, 48 h (100 = growth as untreated, 0 = no growth, -100 = all killed)
applied.conditions: 10 µM unless noted
This is part of a sample that, as a whole, favours compounds with a hit. Of some 83,000 tested, about 20% had one in any assay.
measured.quantity: growth (%)
The response must be a number in % with no trailing unit.

A selection of reference data follows.
| compound | unit.of.measurement | growth |
| --- | --- | --- |
| C=CC[n+]1cccc2c3ccccc3ccc21 | % | 55.7 |
| O=C(CSc1nc2sc3c(c2c(=O)n1-c1ccc(Cl)cc1)CCCC3)NNC(=O)c1ccc(F)cc1 | % | 113 |
| O=C1/C(=C/C=C/c2ccco2)SC(=S)N1CC(=S)C1C=CS(=O)(=O)C1 (stereo not drawn) | % | 103 |
| O=C(N/N=C/c1c[nH]c2ccccc12)Nc1ccc(F)c(Cl)c1 | % | 3.69 |

Please state recorded growth (tested on HCC-2998 colon) of CC1=NN(C2=NC(=O)C(CC(=O)Nc3ccccc3C(F)(F)F)S2)C(c2ccc(N(C)C)cc2)C1 (stereo not drawn)
66.2

Repeat for the following compound: CC1=C(C(=O)Nc2ccccc2)C(c2cccc3ccccc23)n2c(nc3ccccc32)N1 (stereo not drawn)
90.5

Repeat for the following compound: `O=C1c2cccc3c(N4CCN(Cc5ccccc5)CC4)ccc(c23)C(=O)N1c1cccc(-c2nn(-c3ccccc3)cc2-c2nc3ccccc3s2)c1`
127

Repeat for the following compound: `O=C(NNC(=O)c1ccc(OCc2nc3ccc(Cl)cc3[nH]2)cc1)Nc1ccc(Cl)c(C(F)(F)F)c1`
73.9

Repeat for the following compound: CCOc1ccc2[nH]c(=O)c(C(c3nnnn3CC3CCCO3)N3CCN(Cc4ccccc4)CC3)cc2c1 (stereo not drawn)
122

Repeat for the following compound: `COc1ccc(/C=C/c2nc3ccccc3n3c(-c4cccc([N+](=O)[O-])c4)nnc23)cc1`
-84.5

---

Tested on: CAKI-1 renal
test.summary: NCI-60 one-dose screen, 48 h (100 = growth as untreated, 0 = no growth, -100 = all killed)
applied.conditions: 10 µM unless noted
This is part of a sample that, as a whole, favours compounds with a hit. Of some 83,000 tested, about 20% had one in any assay.
Measured growth by item
The response must be a number in % with no trailing unit.

A selection of reference data follows.
| molecule | growth (%) |
| --- | --- |
| CCC(=O)c1c2c(c3ccc4c5ccccc5ccc4n13)C(=O)c1ccccc1C2=O | 84 |
| CN(C)c1nc(NCCNS(=O)(=O)c2ccc(C(=O)/C=C/c3ccccc3)cc2)nc(N2CCOCC2)n1 | 68.5 |
| CN(C)CCCNC(=S)Nc1ccc(/C=C/c2ccc(Cl)cc2)cc1 | -77.3 |
| Cc1ccc(Cl)cc1NC(=O)N/C(N)=N/c1nc2ccccc2s1 | -2.72 |
| CCCn1c(NC(=O)c2cccc(C(N)=O)c2)nc2cc(CN3CCCCC3)ccc21 | 53.3 |
| CCCCC[C@@H]1C/C=C(\C)[C@@H](O)C(C)(C)C(=O)[C@@H](C)/C=C(\C)[C@@H]2C[C@H](O)C[C@](O)(CC(=O)O1)O2 | 47.1 |
| Nc1nn2c(-c3cc4ccccc4oc3=O)ccnc2c1N=Nc1ccccc1 | 81.8 |
| CC(C)(C)C(=O)C1CC(C#N)=C2C=Cc3c(ccc4ccccc34)N21 (stereo not given) | 86.7 |

Please state recorded growth (tested on CAKI-1 renal) of CC1=C(C(=O)OC(C)C)C(c2ccc(O)cc2)NC(=O)N1 (stereo not given)
95.3

Repeat for the following molecule: COc1ccc2c(c1)C(Sc1ccc(Br)cc1)c1c(nc(N)c(C#N)c1N)O2 (stereo not given)
80.3

---

Tested on: HOP-92 NSCLC
test.summary: NCI-60 one-dose screen, 48 h (100 = growth as untreated, 0 = no growth, -100 = all killed)
applied.conditions: 10 µM unless noted
Compounds without any hit were thinned out: in the full panel of roughly 83,000, 20% have a hit. Calls of active or inactive are those of the source. How the source made its calls: active means growth percent below 10; inactive means the rest.
Measured growth by item

A selection of reference data follows.
| compound | growth |
| --- | --- |
| CC1CCc2c(sc3nc(SCC(=O)c4cccc([N+](=O)[O-])c4)n(-c4ccccc4)c(=O)c23)C1 (centres undefined) | 85.5% (inactive) |
| O=C(CSc1nnc(-c2ccc(-c3nc4ccccc4[nH]3)cc2)o1)Nc1ccc(Cl)cc1 | -5.87% (active) |
| CCc1ccccc1-c1nc(CN[C@@H]2C[C@@H]3C[C@H]([C@H]2C)C3(C)C)c(C)o1 | -81.5% (active) |
| C#CCCCNCCNc1ccnc2cc(Cl)ccc12 | 53.4% (inactive) |
| COc1cc(/C=C/C(=O)c2cnn(-c3cc(=O)[nH]c4ccc(C)cc34)c2C)cc(OC)c1OC | 50.6% (inactive) |

GET /values?readout=growth&item= `CC(C)CN1C(=O)/C(=C\C(=O)c2cc3ccccc3oc2=O)c2ccccc21`
104% (inactive)

Repeat for the following compound: `O=C(Nc1nc2ccc([N+](=O)[O-])cc2s1)Nc1ccc(Cl)cc1Cl`
29.1% (inactive)

Repeat for the following compound: `O=C(N/N=C/c1ccc(-c2cccc([N+](=O)[O-])c2)s1)c1[nH]c2ccc(Br)cc2c1-c1ccccc1`
94.4% (inactive)

Repeat for the following compound: COc1ccc(C2=Nc3c(N)nc(N)nc3NC(c3ccc(Oc4nc(Nc5ccc(F)cc5)nc(N(C)C)n4)c(OC)c3)C2)cc1 (centres undefined)
16.6% (inactive)

---

Tested on: MDA-MB-231 breast
test.summary: NCI-60 one-dose screen, 48 h (100 = growth as untreated, 0 = no growth, -100 = all killed)
applied.conditions: 10 µM unless noted
This is part of a sample that, as a whole, favours compounds with a hit. Of some 83,000 tested, about 20% had one in any assay.
measured.quantity: growth (%)
The response must be a number in % with no trailing unit.

GET /values?readout=growth&item= NS(=O)(=O)c1ccc(N2N=C(c3ccc(NC(=O)Nc4ccccc4)cc3)CC2c2ccc(Br)cc2)cc1 (stereo not drawn)
-94.8

Repeat for the following compound: `CN(C)CCCc1ccc(Nc2cnn(C)c(=O)c2Cl)cc1`
108

Repeat for the following compound: `Cc1ccc(C(=O)C[n+]2cccc3c4ccccc4ccc32)cc1`
24.2

Repeat for the following compound: `CCOC(=O)c1ccc(NC(=S)NC(=O)c2cccc(NC(=O)c3ccc(C)cc3)c2)cc1`
39.1

Repeat for the following compound: `O=C(N/N=C/c1ccc(B(O)O)s1)c1[nH]c2ccc(Br)cc2c1-c1ccccc1`
-88.1

Repeat for the following compound: `O=C(N/N=C/c1ccc(Cl)cc1)c1ccc(OCc2nc3ccc(Cl)cc3[nH]2)cc1`
6.26

Repeat for the following compound: `Cn1cc(-c2cc3nc(-c4cn(C)c5ncccc45)cc(N)n3n2)c2cc(F)ccc21`
3.66

Repeat for the following compound: `OC(c1ccccc1)(c1ccccc1)C1CCN(c2ccc3nnc(Cl)n3n2)CC1`
68

Repeat for the following compound: COc1cc(C2CC(c3ccc(Cl)cc3)=Nc3c(N)nc(N)nc3N2)ccc1Oc1nc(Nc2ccc(F)cc2)nc(N(C)C)n1 (stereo not drawn)
23.8

Repeat for the following compound: `Fc1ccc(N2CC(Cn3c(C(F)(F)F)cc4c(Cl)ncnc43)C2)c(F)c1`
-81.9

Repeat for the following compound: `COc1ccccc1NC(=O)N/N=C/c1c[nH]c2ccccc12`
52.3

Repeat for the following compound: `COc1cc(/C=C/C(=O)c2cnn(-c3cc(=O)[nH]c4ccc(C)cc34)c2C)cc(OC)c1OC`
-2.3

Repeat for the following compound: `N#Cc1c(-c2ccc(F)cc2)nc(SCc2ccc(F)cc2)nc1N1CCNCC1`
-93.6

Repeat for the following compound: `O=C(N=Nc1c(O)[nH]c2ccc(Br)cc12)c1ccc2nc(-c3ccc(Cl)cc3)[nH]c2c1`
-89.5

Repeat for the following compound: `CN1CCN(c2ccc3c4c(cccc24)C(=O)N(c2cccc(-c4nn(-c5ccccc5)cc4-c4nc5ccccc5s4)c2)C3=O)CC1`
33.7

Repeat for the following compound: `CCCn1c(NC(=O)c2cccc(C(N)=O)c2)nc2cc(CN3CCCCC3)ccc21`
142

Repeat for the following compound: `CC1=C(C)C(=O)C(N2CCSCC2)=CC1=O`
86

Origin of the recorded values: PubChem BioAssay (NCI)
